Numbers sourced from patent EP4049726A1.

HASPIN (Homo sapiens) pIC50 data
Sequence (Q8TF76 whole entry): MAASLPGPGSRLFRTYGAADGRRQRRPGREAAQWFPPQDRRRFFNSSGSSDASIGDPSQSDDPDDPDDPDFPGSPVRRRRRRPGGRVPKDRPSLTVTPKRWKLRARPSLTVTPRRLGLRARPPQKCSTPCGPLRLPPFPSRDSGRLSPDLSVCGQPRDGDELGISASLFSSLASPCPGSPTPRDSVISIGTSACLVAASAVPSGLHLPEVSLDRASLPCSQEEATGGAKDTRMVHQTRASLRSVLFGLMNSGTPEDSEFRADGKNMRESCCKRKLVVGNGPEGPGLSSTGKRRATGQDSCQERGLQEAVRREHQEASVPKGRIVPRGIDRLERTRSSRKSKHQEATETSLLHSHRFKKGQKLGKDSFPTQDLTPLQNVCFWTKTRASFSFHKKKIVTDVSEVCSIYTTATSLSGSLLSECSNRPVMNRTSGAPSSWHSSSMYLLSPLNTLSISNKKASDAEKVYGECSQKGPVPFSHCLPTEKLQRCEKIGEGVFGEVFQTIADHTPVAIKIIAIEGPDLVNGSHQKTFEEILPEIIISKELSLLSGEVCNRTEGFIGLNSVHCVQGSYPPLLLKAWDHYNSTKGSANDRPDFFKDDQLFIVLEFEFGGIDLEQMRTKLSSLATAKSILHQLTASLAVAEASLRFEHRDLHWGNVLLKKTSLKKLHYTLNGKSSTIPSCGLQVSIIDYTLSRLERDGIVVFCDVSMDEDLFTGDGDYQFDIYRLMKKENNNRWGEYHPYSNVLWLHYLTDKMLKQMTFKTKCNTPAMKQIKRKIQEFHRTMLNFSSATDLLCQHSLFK
A value of pIC50 is the negative decimal logarithm of a concentration given in moles per litre.

Guide cases for pIC50, answers given:
{"mol": "NC(=O)c1cn2cc(-c3ccncc3F)nc(NCC3CCNCC3)c2n1", "reported": 8.03}
{"mol": "CNC(=O)c1nc2c(NCC3(C#N)CCNCC3)nc(-c3ccncc3)cn2c1C", "reported": 7.74}
{"mol": "NC(=O)c1cn2cc(-c3ccncc3F)nc(NCC3(F)CCNCC3)c2n1", "reported": 7.98}
{"mol": "CNC(=O)c1cn2cc(-c3ccncc3F)nc(NCC3CCNCC3)c2n1", "reported": 7.71}
{"mol": "Cc1c(C(N)=O)nc2c(NCC3CCNCC3)nc(-c3ccncc3)cn12", "reported": 6.74}
{"mol": "CNC(=O)c1nc2c(NCC3(F)CCNCC3)nc(-c3ccncc3)cn2c1C", "reported": 7.11}

Please give the measured pIC50 for this compound: N#CC1(CNc2nc(-c3ccncc3)cn3cc(C(N)=O)nc23)CCNCC1
7.71

Please give the measured pIC50 for this compound: CNC(=O)c1nc2c(NCC3CCNCC3)nc(-c3ccncc3)cn2c1C
7.22

Please give the measured pIC50 for this compound: CNC(=O)c1cn2cc(-c3ccncc3)nc(NCC3CCNCC3)c2n1
7.69
